- Measurement target: T1, ヒト組織因子(TF)(ヒト膀胱癌細胞J82上に発現) (human, UniProt P13726 33-295)
- T1 construct: whole, on cells; Target of the cell ELISA; also called ヒトTF; 抗原
- Method: cell ELISA on fixed J82 cells
Measured attribute: binding result

- Binder: "H鎖ヒト型化バージョンi/L鎖キメラ抗体 (antibody, V domains shown, Human IgG4 kappa (vector N5KG4P); also called i-ch) VH: QVQLLESGAVLARPGTSVKISCKASGFNIKDYYMHWVKQRPGQGLEWIGGNDPANGHSMYDPKFQGRVTITADTSTSTVFMELSSLRSEDTAVYYCARDSGYAMDYWGQGTLVTVSS VL: DIKMTQSPSSMYASLGERVTITCKASQDIKSFLSWYQQKPWKSPKTLIYYATSLADGVPSRFSGSGSGQDYSLTINNLESDDTATYYCLQHGESPYTFGGGTKLEIK"
  Reported result: "binds"
- Binder: "H鎖ヒト型化バージョンb/L鎖キメラ抗体 (antibody, V domains shown, Human IgG4 kappa (vector N5KG4P); also called b-ch) VH: QVQLLESGAVLARPGTSVKISCKASGFNIKDYYMHWVKQRPGQGLEWIGGNDPANGHSMYDPKFQGRVTITADTSTNTAYMELSSLRSEDTAIYYCARDSGYAMDYWGQGTLVTVSS VL: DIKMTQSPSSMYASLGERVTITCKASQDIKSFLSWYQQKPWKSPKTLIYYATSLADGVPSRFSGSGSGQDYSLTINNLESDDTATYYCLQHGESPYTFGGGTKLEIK"
  Reported result: "binds"
- Binder: "H鎖キメラ/L鎖ヒト型化バージョンa抗体 (antibody, V domains shown, Human IgG4 kappa (vector N5KG4P); also called ch-a) VH: EVQLQQSGTNLVRPGALVKLSCKGSGFNIKDYYMHWVKQRPEQGLEWIGGNDPANGHSMYDPKFQGKASITADTSSNTAYLQLSSLTSEDTAVYFCARDSGYAMDYWGQGTSVTVSS VL: DIQMTQSPSSLSASVGDRVTITCKASQDIKSFLSWYQQKPGKAPKLLIYYATSLADGVPSRFSGSGSGTDFTLTISSLQPEDFATYYCLQHGESPYTFGGGTKVEIK"
  Reported result: "binds"
